Source listed as ChEMBL document CHEMBL1671621.

# measurement.description: Toxicity in human RBC assessed as hemolysis at 50 uM
# Format: cell-based, Erythrocyte
# assay.setup: red blood cells (RBC), read-out: Activity
Where a SMILES comes first, the peptide text is derived from it. [ ]: non-standard residue; d: D form. The star is where a group is joined. Palmitoyl = CCCCCCCCCCCCCCCC(=O)*; Lauroyl = CCCCCCCCCCCC(=O)*
Kindly state hemolysis at 50 µM for each of the entries shown.
Enter your answer as a number in %; do not include the unit.

CCCCCCCCCCCC(=O)N[C@@H](CCCCN)C(=O)N[C@@H](CC(C)C)C(=O)N[C@H](CC(C)C)C(=O)N[C@@H](CCCCN)C(=O)O (Lauroyl-KL[dL]K-OH) yielded hemolysis at 50 µM of 0

CCCCCCCCCCCCCCCC(=O)N[C@@H](CCCCN)C(=O)N[C@@H](CCCCN)C(=O)N[C@H](CCCCN)C(=O)N[C@@H](CCCCN)C(=O)O (Palmitoyl-KK[dK]K-OH) yielded hemolysis at 50 µM of 6

CCCCCCCCCCCCCC(=O)N[C@@H](CCCCN)C(=O)N[C@@H](CC(C)C)C(=O)N[C@H](CC(C)C)C(=O)N[C@@H](CCCCN)C(=O)O yielded hemolysis at 50 µM of 50

CCCCCCCCCCCCCCCC(=O)N[C@@H](CCCCN)C(=O)N[C@@H](CC(C)C)C(=O)N[C@H](CC(C)C)C(=O)N[C@@H](CCCCN)C(=O)O yielded hemolysis at 50 µM of 45

CCCCCCCCCCCC(=O)N[C@@H](CC(=O)O)C(=O)N[C@@H](CC(C)C)C(=O)N[C@@H](CCCCN)C(=O)N[C@@H](CCCCN)C(=O)N[C@@H](CC(C)C)C(=O)N[C@@H](CC(C)C)C(=O)N[C@@H](CCCCN)C(=O)N[C@@H](CCCCN)C(=O)N[C@@H](CC(C)C)C(=O)N[C@@H](CC(C)C)C(=O)N[C@@H](CCCCN)C(=O)N[C@@H](CCCCN)C(=O)N[C@@H](CC(C)C)C(=O)O (Lauroyl-DLKKLLKKLLKKL-OH) yielded hemolysis at 50 µM of 0

CCCCCCCCCCCCCCCC(=O)N[C@@H](CCCCN)C(=O)N[C@@H](C)C(=O)N[C@H](C)C(=O)N[C@@H](CCCCN)C(=O)O (Palmitoyl-KA[dA]K-OH) yielded hemolysis at 50 µM of 3

====

# measurement.description: Toxicity in human RBC assessed as hemolysis at 20 uM
# Format: cell-based, Erythrocyte
# assay.setup: red blood cells (RBC), read-out: Activity
Where a SMILES comes first, the peptide text is derived from it. [ ]: non-standard residue; d: D form. The star is where a group is joined. Palmitoyl = CCCCCCCCCCCCCCCC(=O)*; Lauroyl = CCCCCCCCCCCC(=O)*
metric.name: hemolysis at 20 µM (%)
Enter your answer as a number in %; do not include the unit.

CCCCCCCCCCCCCCCC(=O)N[C@@H](CCCCN)C(=O)N[C@@H](C)C(=O)N[C@H](C)C(=O)N[C@@H](CCCCN)C(=O)O (Palmitoyl-KA[dA]K-OH) yielded hemolysis at 20 µM of 0

CCCCCCCCCCCC(=O)N[C@@H](CCCCN)C(=O)N[C@@H](CC(C)C)C(=O)N[C@H](CC(C)C)C(=O)N[C@@H](CCCCN)C(=O)O (Lauroyl-KL[dL]K-OH) yielded hemolysis at 20 µM of 0

CCCCCCCCCCCCCC(=O)N[C@@H](CCCCN)C(=O)N[C@@H](CC(C)C)C(=O)N[C@H](CC(C)C)C(=O)N[C@@H](CCCCN)C(=O)O yielded hemolysis at 20 µM of 13

CCCCCCCCCCCC(=O)N[C@@H](CC(=O)O)C(=O)N[C@@H](CC(C)C)C(=O)N[C@@H](CCCCN)C(=O)N[C@@H](CCCCN)C(=O)N[C@@H](CC(C)C)C(=O)N[C@@H](CC(C)C)C(=O)N[C@@H](CCCCN)C(=O)N[C@@H](CCCCN)C(=O)N[C@@H](CC(C)C)C(=O)N[C@@H](CC(C)C)C(=O)N[C@@H](CCCCN)C(=O)N[C@@H](CCCCN)C(=O)N[C@@H](CC(C)C)C(=O)O (Lauroyl-DLKKLLKKLLKKL-OH) yielded hemolysis at 20 µM of 0

CCCCCCCCCCCCCCCC(=O)N[C@@H](CCCCN)C(=O)N[C@@H](CC(C)C)C(=O)N[C@H](CC(C)C)C(=O)N[C@@H](CCCCN)C(=O)O yielded hemolysis at 20 µM of 9

CCCCCCCCCCCCCCCC(=O)N[C@@H](CCCCN)C(=O)N[C@@H](CCCCN)C(=O)N[C@H](CCCCN)C(=O)N[C@@H](CCCCN)C(=O)O (Palmitoyl-KK[dK]K-OH) yielded hemolysis at 20 µM of 0
